TARGET_OF_ASSAY: IRAK-4 (Homo sapiens, UniProt Q9NWZ3)
Sequence (Q9NWZ3 whole entry): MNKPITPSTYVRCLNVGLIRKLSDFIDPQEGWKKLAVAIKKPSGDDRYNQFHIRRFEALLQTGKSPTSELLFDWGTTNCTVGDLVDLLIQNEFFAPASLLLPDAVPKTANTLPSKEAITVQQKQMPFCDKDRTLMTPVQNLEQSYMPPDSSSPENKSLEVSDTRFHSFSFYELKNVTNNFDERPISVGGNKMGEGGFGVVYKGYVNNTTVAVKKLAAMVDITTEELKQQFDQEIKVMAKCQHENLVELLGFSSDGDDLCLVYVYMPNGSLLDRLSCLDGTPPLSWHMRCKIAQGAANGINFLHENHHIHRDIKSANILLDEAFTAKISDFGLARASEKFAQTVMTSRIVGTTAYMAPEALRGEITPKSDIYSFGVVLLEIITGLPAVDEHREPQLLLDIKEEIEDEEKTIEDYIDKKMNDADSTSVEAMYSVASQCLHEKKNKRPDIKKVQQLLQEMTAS
ASSAY_PROCEDURE: IRAK-4 ELISA, PBMC degradation
Format: cell-based
Set-up: endogenous in cells; host or cells: PBMC
CONDITIONS_USED: treated overnight
Parameter: Dmax. Scope: all listed entries.

MOLECULE | Dmax
O=C1CCC(N2C(=O)c3ccc(N4CCC(F)(CN5CCC(n6cc7cc(NC(=O)c8cnn9cccnc89)c(OCC8CC8)cc7n6)CC5)CC4)cc3C2=O)C(=O)N1 (centres unmarked) | ≥ 90%
COc1cc2nn([C@H]3CC[C@H](N(C)C4CN(c5ccc6c(c5)C(=O)N(C5CCC(=O)NC5=O)C6=O)C4)CC3)cc2cc1NC(=O)c1cnn2cccnc12 (some centres unmarked) | ≥ 90%
O=C1CCC(N2C(=O)c3ccc(N4CCC(CN5CCC(n6cc7cc(NC(=O)c8cnn9cccnc89)c(N8CCN(CC(F)F)CC8)cc7n6)CC5)CC4)cc3C2=O)C(=O)N1 (centres unmarked) | ≥ 90%
O=C1CCC(N2C(=O)c3ccc(N4CCC(CN5CCC(N6Cc7cc(NC(=O)c8cnn9cccnc89)c(N8CCN(C9CC(F)(F)C9)CC8)cc7C6=O)CC5)CC4)cc3C2=O)C(=O)N1 (centres unmarked) | ≥ 90%
CN(CC1CCN(c2ccc3c(c2)C(=O)N(C2CCC(=O)NC2=O)C3=O)CC1)[C@H]1CC[C@H](n2cc3cc(NC(=O)c4cnn5cccnc45)c(OCC(F)F)cc3n2)CC1 (some centres unmarked) | 70 to 80%

* * *

TARGET_OF_ASSAY: IRAK-4 (Homo sapiens, UniProt Q9NWZ3)
ASSAY_PROCEDURE: IRAK-4 ELISA, PBMC degradation
Type: cell-based
Design: endogenous in cells; host or cells: PBMC
CONDITIONS_USED: treated overnight
RESULT_TYPE: DC50

MOLECULE | ASSAY_RESULT
O=C1CCC(N2C(=O)c3cccc(N4CC5(CCCN(C6CCC(n7cc8cc(NC(=O)c9cnn%10cccnc9%10)c(OCC9CC9)cc8n7)CC6)C5)C4)c3C2=O)C(=O)N1 (stereo not drawn) | 1 to 5 nM
O=C1CCC(N2Cc3ccc(N4CCC(CN5CCC(N6Cc7cc(NC(=O)c8cnn9cccnc89)c(OCC(F)F)cc7C6=O)CC5)CC4)cc3C2=O)C(=O)N1 (stereo not drawn) | 1 to 5 nM
O=C1CCC(N2C(=O)c3ccc(N4CCC5(CC4)CN(CCN4CCC(n6cc7cc(NC(=O)c8cnn9cccnc89)c(OCC8CC8)cc7n6)CC4)C5)cc3C2=O)C(=O)N1 (stereo not drawn) | 1 to 5 nM
CC(C)Oc1cc2nn(C3CCN(CC4(F)CN(c5cc6c(cc5F)C(=O)N(C5CCC(=O)NC5=O)C6=O)C4)CC3)cc2cc1NC(=O)c1cnn2cccnc12 (stereo not drawn) | < 1 nM
Cn1c(=O)n(C2CCC(=O)NC2=O)c2cccc(N3CC(N(C)[C@H]4CC[C@H](n5cc6cc(NC(=O)c7cnn8cccnc78)c(OCC7CC7)cc6n5)CC4)C3)c21 (stereo partly drawn) | 1 to 5 nM
O=C1CCC(N2C(=O)c3ccc(N4CC[C@H](O[C@H]5CC[C@@H](n6cc7cc(NC(=O)c8cnn9cccnc89)c(OCC8CC8)cc7n6)CC5)C4)cc3C2=O)C(=O)N1 (stereo partly drawn) [Example 427] | ≥ 10 nM
COc1cc2nn(C3CCN(CC4CN(c5cccc6c5n(C)c(=O)n6C5CCC(=O)NC5=O)C4)CC3)cc2cc1NC(=O)c1cnn2cccnc12 (stereo not drawn) | < 1 nM
CC(C)Oc1cc2c(cc1NC(=O)c1cnn3cccnc13)CN([C@H]1CCN(CC3CCN(c4ccc5c(c4)C(=O)N(C4CCC(=O)NC4=O)C5=O)CC3)C[C@@H]1F)C2=O (stereo partly drawn) | 1 to 5 nM
O=C1CCC(N2C(=O)c3ccc(N4CC5(C4)CN([C@H]4CC[C@H](n6cc7cc(NC(=O)c8cnn9cccnc89)c(OCC8CC8)cc7n6)CC4)C5)cc3C2=O)C(=O)N1 (stereo partly drawn) | 1 to 5 nM

* * *

Parameter: IC50. Scope: all listed entries.
Tested on: IL6
ASSAY_PROCEDURE: R848 stimulated IL6 inhibition assay in PBMC
Format: cell-based
CONDITIONS_USED: PBMC; human PBMCs, R848 stimulation, compound overnight, IL6 by MSD after 24 hrs; read-out: R848 stim IL6 inhibition IC50

COMPOUND | IC50
O=C1CCC(NC(=O)c2ccc(N3CCC(CN4CCC(N5Cc6cc(NC(=O)c7cnn8cccnc78)c(N7CCC(N8CCC8)CC7)cc6C5=O)CC4)CC3)cc2F)C(=O)N1 (centres unmarked) | 0.05 to 0.1 µM
CCN(C1CN(c2ccc(C(=O)NC3CCC(=O)NC3=O)c(F)c2)C1)[C@H]1CC[C@H](n2cc3cc(NC(=O)c4cnn5cccnc45)c(OCC4CC4)cc3n2)CC1 (some centres unmarked) | 0.01 to 0.05 µM
O=C1CCC(N2C(=O)c3ccc(N4CC[C@H](O[C@H]5CC[C@@H](n6cc7cc(NC(=O)c8cnn9cccnc89)c(OCC8CC8)cc7n6)CC5)C4)cc3C2=O)C(=O)N1 (some centres unmarked) | 0.01 to 0.05 µM
CC(C)Oc1cc2nn(C3CCN(CC4CN(c5ccc(F)c(C(=O)NC6CCC(=O)NC6=O)c5)C4)CC3)cc2cc1NC(=O)c1cnn2cccnc12 (centres unmarked) | ≥ 0.1 µM
CN1CC(Oc2cc3c(cc2NC(=O)c2cnn4cccnc24)CN(C2CCN(CC4CN(c5ccc6c(c5)C(=O)N(C5CCC(=O)NC5=O)C6=O)C4)CC2)C3=O)C1 (centres unmarked) | 0.01 to 0.05 µM

* * *

TARGET_OF_ASSAY: IRAK-4 (Homo sapiens, UniProt Q9NWZ3)
ASSAY_PROCEDURE: IRAK-4 ELISA, PBMC degradation
Assay type: cell-based
Set-up: endogenous in cells; host or cells: PBMC
CONDITIONS_USED: treated overnight
Experimental: Reagents: Human IRAK-4 Matched Antibody Pair Kit (Abcam ab218182) and ELISA Accessory Pack (Abcam ab210905). Cell Treatment and Lysis: 1. OCI-Ly10: 200,000 cells are seeded at 1×10^6/ml in 96-well U-bottom plates 200 ul per well, treated with compound the same day. Incubate overnight. 2. PBMC: 800,000 cells are seeded at 2×10^6/ml in 96-well U-bottom deep-well plates, 400 ul per well, treated with compound the same day. […] Cell lysate is collected and analyzed by ELISA for IRAK-4 levels.
RESULT_TYPE: Dmax

MOLECULE | TARGET_OF_ASSAY | RESULT_TYPE | ASSAY_RESULT
CN(C1CCN(c2ccc3c(c2)C(=O)N(C2CCC(=O)NC2=O)C3=O)CC1)[C@H]1CC[C@H](n2cc3cc(NC(=O)c4cnn5cccnc45)c(C4CC4)cc3n2)CC1 (some centres unmarked) | IRAK-4 (Homo sapiens, UniProt Q9NWZ3) | Dmax | ≥ 90%
CC(C)Oc1cc2nn(C3CCN(CC4(F)CCN(c5ccc6c(c5)C(=O)N(C5CCC(=O)NC5=O)C6=O)CC4)CC3)cc2cc1NC(=O)c1cnn2cccnc12 (centres unmarked) | IRAK-4 (Homo sapiens, UniProt Q9NWZ3) | Dmax | ≥ 90%
CC(C)Oc1cc2nn(C[C@@H](F)C3CCN(CC4CN(c5ccc6c(c5)C(=O)N(C5CCC(=O)NC5=O)C6=O)C4)CC3)cc2cc1NC(=O)c1cnn2cccnc12 (some centres unmarked) | IRAK-4 (Homo sapiens, UniProt Q9NWZ3) | Dmax | 80 to 90%
CC(C)Oc1nc2c(cc1NC(=O)c1cnn3cccnc13)CN(C1CCN(CC3CN(c4ccc(C(=O)NC5CCC(=O)NC5=O)c(F)c4)C3)CC1)C2=O (centres unmarked) | IRAK-4 (Homo sapiens, UniProt Q9NWZ3) | Dmax | ≥ 90%
CCN(C1CCC(N2Cc3cc(NC(=O)c4cnn5cccnc45)c(OC(C)C)cc3C2=O)CC1)C1CN(c2ccc3c(c2)CN(C2CCC(=O)NC2=O)C3=O)C1 (centres unmarked) | IRAK-4 (Homo sapiens, UniProt Q9NWZ3) | Dmax | ≥ 90%
O=C1CCC(N2C(=O)c3ccc(N4CC(F)(CN5CCC(n6cc7cc(NC(=O)c8cnn9ccc(N%10C[C@H]%11C[C@@H]%10CO%11)nc89)c(C(F)F)cc7n6)CC5)C4)cc3C2=O)C(=O)N1 (some centres unmarked) | IRAK-4 (Homo sapiens, UniProt Q9NWZ3) | Dmax | 80 to 90%
O=C1CCC(N2Cc3cc(N4CCC(CN5CCC(N6Cc7cc(NC(=O)c8cnn9cccnc89)c(OCC8CC8)cc7C6=O)CC5)CC4)ccc3C2=O)C(=O)N1 (centres unmarked) | IRAK-4 (Homo sapiens, UniProt Q9NWZ3) | Dmax | 80 to 90%
O=C1CCC(N2C(=O)c3ccc(N4CCC(CN5CCC(n6cc7cc(NC(=O)c8cnn9cccnc89)c(C8CC8)cc7n6)CC5)CC4)cc3C2=O)C(=O)N1 (centres unmarked) | IRAK-4 (Homo sapiens, UniProt Q9NWZ3) | Dmax | ≥ 90%
